experiment: Apparent permeability of the compound after 5 hrs by PAMPA; assay type: ADME
measured property: Papp at 5 h

Oc1ccc(Cl)c(Nc2nc(SCCN3CCOCC3)nc3c2cnn3CC(Cl)c2ccccc2)c1 (stereo unspecified)    9.74 ×10⁻⁶ cm/s

With those in mind, consider the next molecule.
Query: Given OCCNc1nc(Nc2cc(O)ccc2Cl)c2cnn(CC(Cl)c3ccccc3)c2n1 (stereo unspecified) , state its recorded Papp at 5 h.
Response: 2.7 ×10⁻⁶ cm/s

----------
assay: Aqueous solubility in water at 1 mg after 24 hrs at 20 degC by UV/LC-MS analysis; assay type: physicochemical
Recorded solubility at 24 h values for a group of compounds are listed next.
Number only, in µg/mL; omit the unit.

Oc1ccc(Cl)c(Nc2ncnc3c2cnn3CC(Cl)c2ccccc2)c1 (stereo not drawn)    0.053
CC(Cn1ncc2c(Nc3cc(O)ccc3Cl)nc(SCCN3CCOCC3)nc21)c1ccccc1 (stereo not drawn)    0.031
CC(Cn1ncc2c(Nc3cc(O)ccc3Cl)nc(NCCN)nc21)c1ccccc1 (stereo not drawn)    0.1

Query: Given CC(Cn1ncc2c(Nc3cccc(O)c3)nc(SCCN3CCOCC3)nc21)c1ccccc1 (stereo not drawn) , state its recorded solubility at 24 h.
Response: 0.1

Query: Given CC(Cn1ncc2c(Nc3cc(O)ccc3Cl)nc(NCCO)nc21)c1ccccc1 (stereo not drawn) , state its recorded solubility at 24 h.
Response: 0.103

Query: Given Oc1cccc(Nc2nc(SCCN3CCOCC3)nc3c2cnn3CC(Cl)c2ccccc2)c1 (stereo not drawn) , state its recorded solubility at 24 h.
Response: 0.197

Query: Given OCCNc1nc(Nc2cc(O)ccc2Cl)c2cnn(CC(Cl)c3ccccc3)c2n1 (stereo not drawn) , state its recorded solubility at 24 h.
Response: 0.042

Query: Given CC(Cn1ncc2c(Nc3cccc(O)c3)nc(NCCO)nc21)c1ccccc1 (stereo not drawn) , state its recorded solubility at 24 h.
Response: 134

Each recorded value in this set is attributed to ChEMBL document CHEMBL4265961.
